biological target: SIK2 (Homo sapiens); test: SIK2 kinase assay, IMAP fluorescence polarization; format: biochemical; conditions: 50 or 100 μM ATP; average; read-out: SIK2-AVERAGE Ki

compound: Cc1cccc(F)c1N1Cc2cnc(N)cc2N([C@H]2CCC[C@@H](N(C)C)C2)C1=O (relative stereo)
Ki / nM: 1.57
//
compound: Cc1cccc(F)c1N1Cc2cnc(N)nc2N([C@H]2CCN(C)C2)C1=O
Ki / nM: 3.8
//
compound: Cc1cccc(F)c1N1Cc2cnc(N)cc2N([C@@H]2CCNC2)C1=O
Ki / nM: 1.32
//
compound: Cc1cccc(F)c1N1Cc2cnc(N)nc2N([C@@H]2CCNC2)C1=O
Ki / nM: 3.15

###

molecular target: SIK2 (Homo sapiens, UniProt Q9H0K1); experiment: SIK2 kinase assay, IMAP fluorescence polarization; type: biochemical
Sequence (Q9H0K1 whole entry): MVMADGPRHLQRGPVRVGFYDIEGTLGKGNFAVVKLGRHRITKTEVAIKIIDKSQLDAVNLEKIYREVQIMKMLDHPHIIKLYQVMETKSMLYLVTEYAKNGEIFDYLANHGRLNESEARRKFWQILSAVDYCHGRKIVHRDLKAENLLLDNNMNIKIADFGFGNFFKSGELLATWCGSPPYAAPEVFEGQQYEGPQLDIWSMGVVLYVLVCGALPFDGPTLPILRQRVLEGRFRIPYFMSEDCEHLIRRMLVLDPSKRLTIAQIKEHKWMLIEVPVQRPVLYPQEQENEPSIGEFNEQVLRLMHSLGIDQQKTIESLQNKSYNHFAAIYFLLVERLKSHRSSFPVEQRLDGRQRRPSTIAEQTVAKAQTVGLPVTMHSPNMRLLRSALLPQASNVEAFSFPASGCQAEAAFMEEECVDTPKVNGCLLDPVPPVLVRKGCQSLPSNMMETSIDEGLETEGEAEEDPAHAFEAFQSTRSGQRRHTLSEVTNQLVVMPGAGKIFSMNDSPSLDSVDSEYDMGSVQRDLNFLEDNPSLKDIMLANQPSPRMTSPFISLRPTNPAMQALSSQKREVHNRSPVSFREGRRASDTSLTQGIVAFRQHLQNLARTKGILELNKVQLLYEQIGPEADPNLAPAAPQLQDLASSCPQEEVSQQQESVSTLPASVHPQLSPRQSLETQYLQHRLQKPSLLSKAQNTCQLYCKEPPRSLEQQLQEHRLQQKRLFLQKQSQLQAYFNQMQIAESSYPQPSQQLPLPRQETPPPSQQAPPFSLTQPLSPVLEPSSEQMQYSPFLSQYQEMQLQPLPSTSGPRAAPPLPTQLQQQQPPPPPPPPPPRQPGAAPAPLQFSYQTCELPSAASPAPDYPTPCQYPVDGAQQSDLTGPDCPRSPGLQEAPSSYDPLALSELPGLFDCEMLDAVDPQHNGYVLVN
Decision: Ki beneath 20 nM gives Satisfied; Ki meeting or exceeding 20 nM gives Not satisfied.

molecule: Cc1cccc(F)c1N1Cc2cnc(N)nc2N(C2CCN(C)CC2)C1=O [Example 19]
measurement-target: SIK2 (Homo sapiens, UniProt Q9H0K1)
assigned-class: Satisfied
//
molecule: Cc1cccc(Cl)c1N1Cc2cnc(N)cc2N(C2CCN(C)CC2)C1=O [Example 7]
measurement-target: SIK2 (Homo sapiens, UniProt Q9H0K1)
assigned-class: Satisfied
//
molecule: Cc1cccc(Cl)c1N1Cc2cnccc2N(C2CCNCC2)C1=O [Example 66]
measurement-target: SIK2 (Homo sapiens, UniProt Q9H0K1)
assigned-class: Satisfied
//
molecule: Cc1cccc(F)c1N1Cc2cnc(N)nc2N(C2CCNCC2)C1=O [Example 11]
measurement-target: SIK2 (Homo sapiens, UniProt Q9H0K1)
assigned-class: Satisfied
//
molecule: CCN1CCC(N2C(=O)N(c3c(C)cccc3F)Cc3cnccc32)CC1 [Example 25]
measurement-target: SIK2 (Homo sapiens, UniProt Q9H0K1)
assigned-class: Satisfied
//
molecule: Cc1cccc(F)c1N1Cc2cncnc2N(C2CCNCC2)C1=O [Example 16]
measurement-target: SIK2 (Homo sapiens, UniProt Q9H0K1)
assigned-class: Not satisfied
//
molecule: Cc1cccc(Cl)c1N1Cc2cncnc2N(C2CCN(C)CC2)C1=O [Example 28]
measurement-target: SIK2 (Homo sapiens, UniProt Q9H0K1)
assigned-class: Not satisfied
//
molecule: Cc1cccc(F)c1N1Cc2cnccc2N(C2CCN(C)CC2)C1=O [Example 24]
measurement-target: SIK2 (Homo sapiens, UniProt Q9H0K1)
assigned-class: Satisfied
//
molecule: Cc1cccc(Cl)c1N1Cc2cncnc2N(C2CCNCC2)C1=O [Example 17]
measurement-target: SIK2 (Homo sapiens, UniProt Q9H0K1)
assigned-class: Not satisfied
//
molecule: Cc1cccc(Cl)c1N1Cc2cnc(N)nc2N(C2CCN(C)CC2)C1=O [Example 22]
measurement-target: SIK2 (Homo sapiens, UniProt Q9H0K1)
assigned-class: Satisfied
//
molecule: Cc1cccc(Cl)c1N1Cc2cnc(N)cc2N(C2CCNCC2)C1=O [Example 6]
measurement-target: SIK2 (Homo sapiens, UniProt Q9H0K1)
assigned-class: Satisfied

###

Item-by-item account of Ki
target: SIK1 (Homo sapiens, UniProt P57059); assay: SIK1 kinase assay, IMAP fluorescence polarization; type: biochemical; settings: 50 or 100 μM ATP; average; read-out: SIK1-AVERAGE Ki
Sequence (P57059 whole entry): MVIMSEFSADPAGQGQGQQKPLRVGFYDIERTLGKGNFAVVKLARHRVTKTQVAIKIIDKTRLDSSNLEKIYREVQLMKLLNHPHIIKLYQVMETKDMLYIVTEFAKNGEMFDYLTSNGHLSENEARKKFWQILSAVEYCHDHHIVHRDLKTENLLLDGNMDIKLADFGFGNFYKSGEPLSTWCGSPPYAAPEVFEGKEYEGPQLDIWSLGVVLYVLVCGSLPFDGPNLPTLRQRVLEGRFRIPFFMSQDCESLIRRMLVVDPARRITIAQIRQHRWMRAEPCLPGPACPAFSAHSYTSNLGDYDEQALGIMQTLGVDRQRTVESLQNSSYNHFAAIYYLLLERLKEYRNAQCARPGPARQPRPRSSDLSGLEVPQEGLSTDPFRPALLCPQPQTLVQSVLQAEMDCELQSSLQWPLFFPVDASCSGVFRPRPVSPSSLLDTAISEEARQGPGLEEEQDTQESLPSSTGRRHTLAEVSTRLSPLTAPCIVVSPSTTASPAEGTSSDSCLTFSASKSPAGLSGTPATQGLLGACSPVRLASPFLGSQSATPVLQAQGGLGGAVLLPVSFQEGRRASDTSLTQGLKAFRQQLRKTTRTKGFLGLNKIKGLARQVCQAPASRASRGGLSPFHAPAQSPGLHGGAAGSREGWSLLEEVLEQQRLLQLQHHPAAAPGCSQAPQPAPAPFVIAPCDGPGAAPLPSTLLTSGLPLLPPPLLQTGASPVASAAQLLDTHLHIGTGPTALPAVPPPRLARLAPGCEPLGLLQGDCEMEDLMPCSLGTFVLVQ

smiles-text: Cc1cccc(F)c1N1Cc2cnc(N)nc2N([C@@H]2CCCCN(C)C2)C1=O
measurement-target: SIK1 (Homo sapiens, UniProt P57059)
Ki: 9.57 nM
--
smiles-text: Cc1cccc(F)c1N1Cc2cnc(N)nc2N([C@@H]2CCNC2)C1=O
measurement-target: SIK1 (Homo sapiens, UniProt P57059)
Ki: 5.83 nM
--
smiles-text: Cc1cccc(F)c1N1Cc2cnc(N)nc2N([C@@H]2CCCN(C)CC2)C1=O
measurement-target: SIK1 (Homo sapiens, UniProt P57059)
Ki: 0.733 nM
--
smiles-text: Cc1cccc(Cl)c1N1Cc2cnc(N)cc2N(C2CN(C)C2)C1=O
measurement-target: SIK1 (Homo sapiens, UniProt P57059)
Ki: 29.2 nM
--
smiles-text: Cc1cccc(F)c1N1Cc2cnc(N)nc2N([C@H]2CC[C@@H](N(C)C)CC2)C1=O
measurement-target: SIK1 (Homo sapiens, UniProt P57059)
Ki: 1.66 nM
--
smiles-text: Cc1cccc(F)c1N1Cc2cnc(N)cc2N(C2CN(C)C2)C1=O
measurement-target: SIK1 (Homo sapiens, UniProt P57059)
Ki: 56 nM
--
smiles-text: Cc1cccc(F)c1N1Cc2cnc(N)nc2N([C@@H]2CCCNCC2)C1=O
measurement-target: SIK1 (Homo sapiens, UniProt P57059)
Ki: 0.397 nM
--
smiles-text: Cc1cccc(F)c1N1Cc2cnc(N)cc2N([C@H]2CCCN(C)CC2)C1=O
measurement-target: SIK1 (Homo sapiens, UniProt P57059)
Ki: 1.86 nM
--
smiles-text: Cc1cccc(F)c1N1Cc2cnc(N)cc2N([C@H]2CCCCNC2)C1=O
measurement-target: SIK1 (Homo sapiens, UniProt P57059)
Ki: 9.45 nM

###

Item-by-item account of pKi
target: Abl (Homo sapiens); assay: Abl kinase assay, IMAP fluorescence polarization; type: biochemical; settings: 50 or 100 μM ATP; average; read-out: Abl-AVERAGE Ki
Sequence (P00519 whole entry): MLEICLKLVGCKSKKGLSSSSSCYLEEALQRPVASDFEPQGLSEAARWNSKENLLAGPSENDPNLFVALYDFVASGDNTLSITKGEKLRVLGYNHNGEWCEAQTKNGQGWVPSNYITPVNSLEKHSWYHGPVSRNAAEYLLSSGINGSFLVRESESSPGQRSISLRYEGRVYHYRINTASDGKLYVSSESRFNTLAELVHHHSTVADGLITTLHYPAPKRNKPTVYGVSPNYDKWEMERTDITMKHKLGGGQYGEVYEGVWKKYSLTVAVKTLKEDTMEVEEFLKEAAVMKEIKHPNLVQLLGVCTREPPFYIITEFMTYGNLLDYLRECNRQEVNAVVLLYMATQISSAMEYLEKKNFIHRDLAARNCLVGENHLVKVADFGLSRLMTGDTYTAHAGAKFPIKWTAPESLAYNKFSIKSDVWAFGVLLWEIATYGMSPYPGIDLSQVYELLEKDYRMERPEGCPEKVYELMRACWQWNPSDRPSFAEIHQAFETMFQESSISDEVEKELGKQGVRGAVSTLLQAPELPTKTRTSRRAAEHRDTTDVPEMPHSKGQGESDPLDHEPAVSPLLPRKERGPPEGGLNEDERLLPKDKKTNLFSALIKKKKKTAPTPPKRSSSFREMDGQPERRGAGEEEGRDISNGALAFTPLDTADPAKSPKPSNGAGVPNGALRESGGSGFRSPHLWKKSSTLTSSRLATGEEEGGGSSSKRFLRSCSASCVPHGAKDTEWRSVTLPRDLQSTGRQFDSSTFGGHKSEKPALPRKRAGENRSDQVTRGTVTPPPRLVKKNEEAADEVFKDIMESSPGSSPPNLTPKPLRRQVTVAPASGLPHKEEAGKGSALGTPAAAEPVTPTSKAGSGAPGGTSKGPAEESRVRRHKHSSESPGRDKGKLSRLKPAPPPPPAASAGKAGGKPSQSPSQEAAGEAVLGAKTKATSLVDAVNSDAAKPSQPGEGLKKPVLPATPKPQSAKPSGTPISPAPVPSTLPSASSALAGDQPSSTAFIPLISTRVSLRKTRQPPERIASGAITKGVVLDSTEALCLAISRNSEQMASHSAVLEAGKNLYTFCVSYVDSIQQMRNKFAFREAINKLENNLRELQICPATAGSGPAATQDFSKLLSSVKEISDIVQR
pKi: −log10 of the molar value.
measurement-type: pKi

compound: Cc1cccc(Cl)c1N1Cc2cnc(N)nc2N(C2CN(C)C2)C1=O
qualifying-sign: <
meas-value: 5.00
//
compound: Cc1cccc(F)c1N1Cc2cnc(N)nc2N([C@@H]2CCCN(C)C2)C1=O
qualifying-sign: =
meas-value: 6.62
//
compound: Cc1cccc(F)c1N1Cc2cnc(N)cc2N([C@H]2CCNC2)C1=O
qualifying-sign: <
meas-value: 6.00
//
compound: Cc1cccc(F)c1N1Cc2cnc(N)nc2N([C@H]2CCCNCC2)C1=O
qualifying-sign: =
meas-value: 7.71
//
compound: Cc1cccc(F)c1N1Cc2cnc(N)nc2N([C@@H]2CCCNCC2)C1=O
qualifying-sign: =
meas-value: 7.81
//
compound: Cc1cccc(F)c1N1Cc2cnc(N)cc2N([C@H]2CCC[C@@H](N)C2)C1=O (relative stereo)
qualifying-sign: =
meas-value: 8.48
//
compound: Cc1cccc(F)c1N1Cc2cnc(N)cc2N([C@H]2CCCCNC2)C1=O
qualifying-sign: =
meas-value: 6.29
//
compound: CN[C@H]1CC[C@H](N2C(=O)N(c3c(C)cccc3F)Cc3cnc(N)cc32)CC1
qualifying-sign: =
meas-value: 7.59
//
compound: CN[C@H]1CC[C@H](N2C(=O)N(c3c(C)cccc3F)Cc3cnc(N)nc32)CC1
qualifying-sign: =
meas-value: 7.54
//
compound: CN[C@H]1CC[C@@H](N2C(=O)N(c3c(C)cccc3F)Cc3cnc(N)nc32)CC1
qualifying-sign: =
meas-value: 7.74
//
compound: Cc1cccc(F)c1N1Cc2cnc(N)nc2N([C@H]2CC[C@@H](N(C)C)CC2)C1=O
qualifying-sign: =
meas-value: 7.49
//
compound: Cc1cccc(F)c1N1Cc2cnc(N)cc2N([C@@H]2CCCNC2)C1=O
qualifying-sign: <
meas-value: 6.00
//
compound: Cc1cccc(F)c1N1Cc2cnc(N)cc2N([C@@H]2CCCN(C)C2)C1=O
qualifying-sign: =
meas-value: 7.17
//
compound: Cc1cccc(F)c1N1Cc2cnc(N)cc2N([C@H]2CC[C@H](N)CC2)C1=O
qualifying-sign: =
meas-value: 7.54
//
compound: Cc1cccc(F)c1N1Cc2cnc(N)nc2N(C2CCCC(N)C2)C1=O (centres unmarked)
qualifying-sign: =
meas-value: 7.86
//
compound: Cc1cccc(F)c1N1Cc2cnc(N)cc2N(C2CN(C)C2)C1=O
qualifying-sign: <
meas-value: 6.00
//
compound: Cc1cccc(F)c1N1Cc2cnc(N)nc2N([C@@H]2CCN(C)C2)C1=O
qualifying-sign: =
meas-value: 6.28
//
compound: Cc1cccc(F)c1N1Cc2cnc(N)nc2N([C@H]2CC[C@@H](N)CC2)C1=O
qualifying-sign: =
meas-value: 7.65
//
compound: Cc1cccc(F)c1N1Cc2cnc(N)cc2N([C@@H]2CCNC2)C1=O
qualifying-sign: <
meas-value: 6.00
//
compound: CNc1cc2c(cn1)CN(c1c(C)cccc1F)C(=O)N2C1CN(C)C1
qualifying-sign: <
meas-value: 6.00
//
compound: Cc1cccc(F)c1N1Cc2cnc(N)cc2N([C@H]2CCCN(C)C2)C1=O
qualifying-sign: <
meas-value: 6.00
//
compound: Cc1cccc(F)c1N1Cc2cnc(N)cc2N([C@H]2CCCNC2)C1=O
qualifying-sign: <
meas-value: 6.00
//
compound: Cc1cccc(F)c1N1Cc2cnc(N)nc2N([C@@H]2CCCN(C)CC2)C1=O
qualifying-sign: =
meas-value: 7.47

###

Item-by-item account of log10 of Ki
target: Src (Homo sapiens, UniProt P12931); test: Src kinase assay, IMAP fluorescence polarization; format: biochemical
Sequence (P12931 whole entry): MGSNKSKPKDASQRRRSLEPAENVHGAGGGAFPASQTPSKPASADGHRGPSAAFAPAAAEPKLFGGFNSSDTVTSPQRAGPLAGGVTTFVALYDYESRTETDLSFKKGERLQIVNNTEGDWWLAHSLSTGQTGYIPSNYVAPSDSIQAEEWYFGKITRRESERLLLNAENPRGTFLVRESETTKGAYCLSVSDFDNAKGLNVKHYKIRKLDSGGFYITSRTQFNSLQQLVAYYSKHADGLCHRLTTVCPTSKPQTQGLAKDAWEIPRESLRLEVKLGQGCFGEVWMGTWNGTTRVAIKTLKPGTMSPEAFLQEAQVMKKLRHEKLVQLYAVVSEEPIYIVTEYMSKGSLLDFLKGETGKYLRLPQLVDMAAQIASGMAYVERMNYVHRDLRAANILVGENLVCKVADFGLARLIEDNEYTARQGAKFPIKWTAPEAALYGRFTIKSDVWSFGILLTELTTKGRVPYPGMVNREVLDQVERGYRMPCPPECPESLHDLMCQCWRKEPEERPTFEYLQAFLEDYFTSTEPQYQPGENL
measurement-type: log10 of Ki (log10 of the value in nM)

smiles-text: Cc1cccc(Cl)c1N1Cc2cnc(N)nc2N(C2CCN(C)CC2)C1=O
meas-value: 2.42

smiles-text: Cc1cccc(Cl)c1N1Cc2cnc(N)nc2N(C2CCNCC2)C1=O
meas-value: 2.14

smiles-text: Cc1cccc(F)c1N1Cc2cnccc2N(C2CCN(C)CC2)C1=O
meas-value: 3.35

smiles-text: Cc1cccc(Cl)c1N1Cc2cnc(N)cc2N(C2CCNCC2)C1=O
meas-value: 2.33

smiles-text: Cc1cccc(Cl)c1N1Cc2cnc(N)cc2N(C2CCN(C)CC2)C1=O
meas-value: 2.42

smiles-text: Cc1cccc(Cl)c1N1Cc2cnccc2N(C2CCNCC2)C1=O
meas-value: 2.64

smiles-text: CCN1CCC(N2C(=O)N(c3c(C)cccc3Cl)Cc3cnccc32)CC1
meas-value: 3.19

smiles-text: Cc1cccc(Cl)c1N1Cc2cnccc2N(C2CCN(C)CC2)C1=O
meas-value: 2.71

smiles-text: Cc1cccc(F)c1N1Cc2cnc(N)nc2N(C2CCNCC2)C1=O
meas-value: 2.67

smiles-text: Cc1cccc(F)c1N1Cc2cnc(N)cc2N(C2CCN(C)CC2)C1=O
meas-value: 2.59

smiles-text: Cc1cccc(F)c1N1Cc2cnccc2N(C2CCNCC2)C1=O
meas-value: 3.28

smiles-text: CCN1CCC(N2C(=O)N(c3c(C)cccc3F)Cc3cnccc32)CC1
meas-value: 3.42
